system: SMARCA2 (Homo sapiens, UniProt P51531)
Sequence (P51531 whole entry): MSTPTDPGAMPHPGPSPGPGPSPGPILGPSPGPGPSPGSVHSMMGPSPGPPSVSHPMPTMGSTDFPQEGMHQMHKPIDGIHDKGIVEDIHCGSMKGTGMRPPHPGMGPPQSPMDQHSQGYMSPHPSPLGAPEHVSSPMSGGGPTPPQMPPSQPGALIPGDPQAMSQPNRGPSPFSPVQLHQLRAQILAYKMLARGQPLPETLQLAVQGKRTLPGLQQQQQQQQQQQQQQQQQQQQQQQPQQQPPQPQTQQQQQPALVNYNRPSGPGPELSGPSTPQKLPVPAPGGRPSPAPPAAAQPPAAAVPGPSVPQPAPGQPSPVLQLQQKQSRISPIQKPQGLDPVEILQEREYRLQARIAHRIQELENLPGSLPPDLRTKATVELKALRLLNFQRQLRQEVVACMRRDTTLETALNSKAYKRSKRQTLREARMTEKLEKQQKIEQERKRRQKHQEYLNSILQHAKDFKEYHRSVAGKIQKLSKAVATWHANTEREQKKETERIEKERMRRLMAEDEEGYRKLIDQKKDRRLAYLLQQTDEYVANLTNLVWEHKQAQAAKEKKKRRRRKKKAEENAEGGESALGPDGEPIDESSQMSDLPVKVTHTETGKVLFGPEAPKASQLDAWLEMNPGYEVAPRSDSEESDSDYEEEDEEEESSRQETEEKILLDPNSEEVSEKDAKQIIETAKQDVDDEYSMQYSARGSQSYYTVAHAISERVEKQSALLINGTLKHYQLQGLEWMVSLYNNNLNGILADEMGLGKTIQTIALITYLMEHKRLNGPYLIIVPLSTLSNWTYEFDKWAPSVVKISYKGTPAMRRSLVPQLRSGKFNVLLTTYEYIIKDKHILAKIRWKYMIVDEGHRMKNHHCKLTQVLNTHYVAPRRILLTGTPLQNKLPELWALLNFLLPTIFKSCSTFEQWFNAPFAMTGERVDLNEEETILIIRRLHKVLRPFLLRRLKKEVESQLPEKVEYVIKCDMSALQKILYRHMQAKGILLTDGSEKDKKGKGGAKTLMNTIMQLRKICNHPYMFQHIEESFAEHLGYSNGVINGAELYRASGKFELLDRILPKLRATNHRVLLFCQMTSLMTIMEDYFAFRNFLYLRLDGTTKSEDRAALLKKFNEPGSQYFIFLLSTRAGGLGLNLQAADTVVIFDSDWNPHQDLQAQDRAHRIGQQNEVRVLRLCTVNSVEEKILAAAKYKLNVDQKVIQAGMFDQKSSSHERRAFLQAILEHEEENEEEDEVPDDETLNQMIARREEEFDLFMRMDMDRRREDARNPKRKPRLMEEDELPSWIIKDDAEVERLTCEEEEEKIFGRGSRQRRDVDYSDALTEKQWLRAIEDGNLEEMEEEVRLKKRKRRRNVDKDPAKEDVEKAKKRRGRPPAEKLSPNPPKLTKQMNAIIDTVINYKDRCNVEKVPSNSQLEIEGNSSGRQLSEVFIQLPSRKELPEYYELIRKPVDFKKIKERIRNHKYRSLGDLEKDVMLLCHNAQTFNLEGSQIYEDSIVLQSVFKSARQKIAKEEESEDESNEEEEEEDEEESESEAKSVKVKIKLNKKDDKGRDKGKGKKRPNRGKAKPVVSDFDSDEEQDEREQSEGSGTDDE
protocol: HiBit assay in engineered HT1080 CRISPR knock-in cell, 6 hrs (B series), SMARCA2
Format: cell-based
test.context: HT1080 CRISPR knock-in cells, 6 hrs incubation; read-out: SMARC A2 HT1080 HiBit DC50
result.type: DC50

These recorded examples may help you get a feel for the data.
C[C@H](NC(=O)[C@@H]1C[C@@H](O)CN1C(=O)[C@@H](n1cc(C2CCC(CN3CCC(c4ccc5c(c4)-n4c(nc(=O)c6c(Cl)cccc64)C54CCCCC4)CC3)CC2)nn1)C(C)(C)C)c1ccc(-c2scnc2CCCN2CCOCC2)cc1 (stereo partly shown); 0.1 to 0.5 µM
Cc1cc(C(C(=O)N2C[C@H](O)C[C@H]2C(=O)N[C@@H](CCCCCN2CCC(c3ccc4c(c3)-n3c(nc(=O)c5c(Cl)cccc53)C4(C)C)CC2)c2ccc(-c3scnc3C)cc2)C(C)C)on1 (stereo partly shown); < 0.1 µM

Complete the entry with DC50 for Cc1ncsc1-c1ccc([C@H](C)NC(=O)[C@@H]2C[C@@H](O)CN2C(=O)C(c2cc(CN3CCC(c4ccc5c(c4)-n4c(nc(=O)c6c(Cl)cccc64)C5(C)C)CC3)no2)C(C)C)cc1 (stereo partly shown)
< 0.1 µM

Complete the entry with DC50 for Cc1cc(C(C(=O)N2C[C@H](O)C[C@H]2C(=O)N[C@@H](C)c2ccc(-c3scnc3C#CCN3CCC(c4ccc5c(c4)C(C)(C)c4nc(=O)c6c(Cl)cccc6n4-5)CC3)cc2)C(C)C)on1 (stereo partly shown)
0.1 to 0.5 µM

====

system: SMARCA4 (Homo sapiens, UniProt P51532)
Sequence (P51532 whole entry): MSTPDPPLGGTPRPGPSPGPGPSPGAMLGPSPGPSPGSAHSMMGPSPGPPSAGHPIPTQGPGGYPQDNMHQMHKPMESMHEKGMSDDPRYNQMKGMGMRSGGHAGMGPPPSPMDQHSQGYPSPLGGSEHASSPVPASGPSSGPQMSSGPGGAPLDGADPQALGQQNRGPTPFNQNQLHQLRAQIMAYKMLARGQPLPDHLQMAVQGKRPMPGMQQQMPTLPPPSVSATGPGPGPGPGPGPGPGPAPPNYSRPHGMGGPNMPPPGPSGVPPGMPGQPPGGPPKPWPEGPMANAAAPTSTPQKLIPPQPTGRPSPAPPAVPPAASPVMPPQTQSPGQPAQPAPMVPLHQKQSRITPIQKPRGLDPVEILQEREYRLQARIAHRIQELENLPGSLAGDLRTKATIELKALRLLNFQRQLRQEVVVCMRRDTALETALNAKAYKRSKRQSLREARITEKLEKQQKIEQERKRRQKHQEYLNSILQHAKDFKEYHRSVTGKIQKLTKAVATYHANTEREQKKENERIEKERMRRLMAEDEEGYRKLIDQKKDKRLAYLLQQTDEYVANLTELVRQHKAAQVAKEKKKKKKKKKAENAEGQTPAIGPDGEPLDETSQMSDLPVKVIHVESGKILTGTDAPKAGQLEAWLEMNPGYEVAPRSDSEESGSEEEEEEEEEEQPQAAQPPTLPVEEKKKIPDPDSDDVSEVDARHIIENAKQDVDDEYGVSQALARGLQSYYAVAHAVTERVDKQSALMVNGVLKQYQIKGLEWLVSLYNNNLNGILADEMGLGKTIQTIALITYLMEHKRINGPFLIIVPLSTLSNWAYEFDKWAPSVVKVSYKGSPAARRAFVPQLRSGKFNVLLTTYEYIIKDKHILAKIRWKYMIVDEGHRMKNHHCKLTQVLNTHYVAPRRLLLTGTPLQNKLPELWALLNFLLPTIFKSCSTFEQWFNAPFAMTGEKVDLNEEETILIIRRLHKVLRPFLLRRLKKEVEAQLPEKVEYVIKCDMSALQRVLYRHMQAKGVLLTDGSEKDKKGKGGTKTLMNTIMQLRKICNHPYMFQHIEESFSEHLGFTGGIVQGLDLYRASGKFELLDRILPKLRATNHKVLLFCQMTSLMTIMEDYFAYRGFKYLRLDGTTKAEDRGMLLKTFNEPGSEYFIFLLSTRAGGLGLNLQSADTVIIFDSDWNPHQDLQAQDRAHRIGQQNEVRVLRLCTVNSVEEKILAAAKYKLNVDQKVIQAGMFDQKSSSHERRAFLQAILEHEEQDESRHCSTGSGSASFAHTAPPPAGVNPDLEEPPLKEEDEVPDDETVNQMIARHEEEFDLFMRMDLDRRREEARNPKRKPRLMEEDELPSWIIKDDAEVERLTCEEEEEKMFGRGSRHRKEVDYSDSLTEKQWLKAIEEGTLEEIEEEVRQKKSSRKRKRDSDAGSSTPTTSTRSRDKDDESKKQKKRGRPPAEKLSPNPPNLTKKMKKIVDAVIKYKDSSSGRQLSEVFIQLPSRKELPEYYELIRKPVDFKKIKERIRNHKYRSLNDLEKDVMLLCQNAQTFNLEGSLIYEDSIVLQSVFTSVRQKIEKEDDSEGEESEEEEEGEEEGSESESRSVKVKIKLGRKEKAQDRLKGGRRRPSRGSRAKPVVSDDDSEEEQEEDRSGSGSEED
protocol: HiBiT assay for protein degradation, Hela SMARCA4-HiBiT cells (A series)
Assay type: cell-based
Design: fuse HiBiT to the carboxy terminus of SMARCA2 (Promega CS302365) or SMARCA4 (Promega CS3023225); host or cells: HeLa (CRISPR/Cas9 HiBiT knock-in)
test.context: Hela SMARCA4-HiBiT cells, 24 hours treatment; read-out: SMARC A4 Hela HiBit DC50
result.type: DC50

Cc1ncsc1-c1ccc([C@H](CN2CCN(C)CC2)NC(=O)[C@@H]2C[C@@H](O)CN2C(=O)[C@@H](n2cc([C@H]3CC[C@H](CN4CCC(c5ccc6c(c5)-n5c(nc(=O)c7c(Cl)cccc75)C65CCCCC5)CC4)CC3)nn2)C(C)(C)C)cc1; 10 to 100 nM
COC(=O)COC[C@H](NC(=O)[C@@H]1C[C@@H](O)CN1C(=O)[C@@H](n1cc([C@H]2CC[C@H](CN3CCC(c4ccc5c(c4)-n4c(nc(=O)c6c(Cl)cccc64)C54CCCCC4)CC3)CC2)nn1)C(C)(C)C)c1ccc(-c2scnc2C)cc1; > 1000 nM
COCCOC[C@H](NC(=O)[C@@H]1C[C@@H](O)CN1C(=O)[C@@H](n1cc([C@H]2CC[C@H](CN3CCC(c4ccc5c(c4)-n4c(nc(=O)c6c(Cl)cccc64)C5(C)C)CC3)CC2)nn1)C(C)(C)C)c1ccc(-c2scnc2C)cc1; > 1000 nM

Now for another entry.
Complete the entry with DC50 for Cc1ncsc1-c1ccc([C@H](CN2CCOCC2)NC(=O)[C@@H]2C[C@@H](O)CN2C(=O)[C@@H](n2cc([C@H]3CC[C@H](CN4CCC(c5ccc6c(c5)-n5c(nc(=O)c7c(Br)cccc75)C65CCCCC5)CC4)CC3)nn2)C(C)(C)O)cc1
> 1000 nM
